# System: primary human hepatic stellate cells (donor 1)
# Assay Remarks: scaled lipid accumulation score (0 = DMSO-like, 1 = nortriptyline-like); higher = stronger HSC inactivation (lipid re-accumulation), active = hit call of the paper
# Condition Label: 48 h
Structures can show the parent of a compound that is named as a salt. The whole screen tested about 5,800 compounds, of which about 620 (11%) showed activity.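 Rule for the calls: active = score above a cut-off or among the top three wells of a plate; in these data no inactive exceeds 0.85.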 Only a selection was taken, and actives are over-represented in it overall.
Returns: one label drawn from active, inactive

Answered examples (4):
[
  {
    "Molecule": "C[n+]1cc2c3c(ccc2c2ccc4cc5c(cc4c21)OCO5)OCO3",
    "Qualitative Label": "active"
  },
  {
    "Molecule": "CC(C)(C(=O)O)c1ccc(C(O)CCCN2CCC(C(O)(c3ccccc3)c3ccccc3)CC2)cc1 (configuration not stated) [Fexofenadine HCl]",
    "Qualitative Label": "inactive"
  },
  {
    "Molecule": "C[C@@H]1[C@H](O)[C@@H](C)/C=C/C=C/C=C/C=C/C=C/C=C/C=C/[C@H](O[C@@H]2O[C@H](C)[C@@H](O)[C@H](N)[C@@H]2O)C[C@@H]2O[C@](O)(C[C@@H](O)C[C@@H](O)[C@H](O)CC[C@@H](O)C[C@@H](O)CC(=O)O[C@H]1C)C[C@H](O)[C@H]2C(=O)O",
    "Qualitative Label": "inactive"
  },
  {
    "Molecule": "O=C(NCCN1CCOCC1)c1ccc(Cl)cc1 [Moclobemide]",
    "Qualitative Label": "inactive"
  }
]

Attention now turns to another entry.
Ask | Per the assay record, what outcome was assigned to CSc1ccc2c(c1)N(CCC1CCCCN1C)c1ccccc1S2 (configuration not stated) [Thioridazine hydrochloride] ?
Reply | inactive

Where these numbers come from: the supplement of paper PMC9135407
